target: Ribonuclease HI (Escherichia coli (strain K12)); assay: E. coli RNase HI inhibitors, dose response, biochemical, FRET RNA/DNA duplex cleavage (AID 365); settings: E. coli RNase H, FRET RNA/DNA cleavage fluorescence; call rule not given here
Allowed answers: T = active, F = inactive

Worked examples, 4 compounds total:
COMPOUND	TARGET ENTITY	LABEL
O=S(=O)(O)c1cc(N=[N+]([O-])c2cc(S(=O)(=O)O)c3ccccc3c2)cc2ccccc12	Ribonuclease HI (Escherichia coli (strain K12))	T
Ic1ccc2c(c1)N(c1ccccc1)c1cc(N=c3ccc4nc5ccc(I)cc5n(-c5ccccc5)c-4c3)ccc1N2	Ribonuclease HI (Escherichia coli (strain K12))	T
COc1ccc(-c2c(C#N)c(N)nc(SCC(=O)c3ccc(O)c(O)c3)c2C#N)cc1	Ribonuclease HI (Escherichia coli (strain K12))	T
CCOc1ccc(NC(=O)c2c(NC(=O)c3ccccc3)sc3c2CCCCC3)cc1	Ribonuclease HI (Escherichia coli (strain K12))	T

Turning to the following compound.
Task: Tell me the recorded outcome of this test for `FC(F)(F)c1nc2ccc(SSc3ccc4nc(C(F)(F)F)[nH]c4c3)cc2[nH]1` .
Output: T
